Km values for the proteins below.
- Substrate: Cc1ccc(O)c(O)c1
- PROTOCOL_NOTES: purified protein
- Format: biochemical, Tetranychus urticae
- EXPERIMENTAL_CONDITIONS: 0.1 M PBS pH 7.5, 25 °C, O2 co-substrate (air), Fe enzyme, kcat corrected for iron content
Write down the numeric answer in µM and omit the unit.

[
  {
    "PROTEIN": "TuDOG15 (Tetranychus urticae) (protein) DHERPGKYLEHDSTVINCARYKREANQHSCVLAPYAVEGPYFLPDDLERSNLAEDKVGVSLDLAIRLVNSNDCTPLTNMFVHVWHADALGVYSGVPDLAELFVERMRQENKTLPPFWGPEGAYEGRRPGGPGGPGGPGGPGGPGDMEMPGRPTPVNNERFLRGYQVTNEAGEVNFKTIIPGWYTGRSLHIHVEVYSKNTTEPGEVNYIGQIFFKDDLPAELKLIEPYSLNQNILVLNPQDGIYNFAHGEQTKIQLENRETGYFGSMTFGINPNAH",
    "RESULT_UNITS": "µM",
    "Km": 117.4
  },
  {
    "PROTEIN": "TuDOG7 (Tetranychus urticae) (protein) ERSIEILNHDATVIDCARYKREANQHKCVITPFTTEGPYFLPDDYERSDITDGYTGVNLNLTLLLTNAKDCSPLSNYYVHIWNANAMGHYSGVKEFNFFDHPTFRPKPINNLRFLRGYQITNEDGLVNFNTIIPGWYFGRCIHIHVEIYDKNTTDGHAVSYIGQLYFNREMPAALKLIDPYSQNNNELTLNDQDIVFALSRGSDTILELIPEGNGYSASYVLSIDPTVKVENSVLPFEDPRNVSFIEH",
    "RESULT_UNITS": "µM",
    "Km": 62.2
  }
]

Tell me measured Km for TuDOG11 (Tetranychus urticae) (protein, signal peptide removed, N-terminal 6xHis kept, pJExpress 411, E. coli BL21(DE3), codon optimized (ATUM), 25-37 kDa) HLQRPGKFLPHDRSIVDCARYKREANQHTCVLAPFTTEGPYFLPDDLERSDITDGQTGVNLDLNLKLTNAKDCSPLSNYFVHVWQANALGHYSGVNELFPVGFRPKPISGERFLRGYQKTNEDGEVNFKTIIPGWYVGRCIHIHVEVYAKNNTDGNAVNYIGQLYFERDIPSSLRLVEPYSTNVNEITLNDSDGVYLLTHGNDTLIDLVPQESGFRTDYIVAIDPDVSIKYDWLDI please.
153.9

Numbers sourced from paper PMC9167512.
